- TARGET OR SYSTEM: androgen receptor (Homo sapiens, UniProt P10275, T878A)
- Construct: host or cells: LNCaP.FGC
- Sequence (P10275 whole entry T878A): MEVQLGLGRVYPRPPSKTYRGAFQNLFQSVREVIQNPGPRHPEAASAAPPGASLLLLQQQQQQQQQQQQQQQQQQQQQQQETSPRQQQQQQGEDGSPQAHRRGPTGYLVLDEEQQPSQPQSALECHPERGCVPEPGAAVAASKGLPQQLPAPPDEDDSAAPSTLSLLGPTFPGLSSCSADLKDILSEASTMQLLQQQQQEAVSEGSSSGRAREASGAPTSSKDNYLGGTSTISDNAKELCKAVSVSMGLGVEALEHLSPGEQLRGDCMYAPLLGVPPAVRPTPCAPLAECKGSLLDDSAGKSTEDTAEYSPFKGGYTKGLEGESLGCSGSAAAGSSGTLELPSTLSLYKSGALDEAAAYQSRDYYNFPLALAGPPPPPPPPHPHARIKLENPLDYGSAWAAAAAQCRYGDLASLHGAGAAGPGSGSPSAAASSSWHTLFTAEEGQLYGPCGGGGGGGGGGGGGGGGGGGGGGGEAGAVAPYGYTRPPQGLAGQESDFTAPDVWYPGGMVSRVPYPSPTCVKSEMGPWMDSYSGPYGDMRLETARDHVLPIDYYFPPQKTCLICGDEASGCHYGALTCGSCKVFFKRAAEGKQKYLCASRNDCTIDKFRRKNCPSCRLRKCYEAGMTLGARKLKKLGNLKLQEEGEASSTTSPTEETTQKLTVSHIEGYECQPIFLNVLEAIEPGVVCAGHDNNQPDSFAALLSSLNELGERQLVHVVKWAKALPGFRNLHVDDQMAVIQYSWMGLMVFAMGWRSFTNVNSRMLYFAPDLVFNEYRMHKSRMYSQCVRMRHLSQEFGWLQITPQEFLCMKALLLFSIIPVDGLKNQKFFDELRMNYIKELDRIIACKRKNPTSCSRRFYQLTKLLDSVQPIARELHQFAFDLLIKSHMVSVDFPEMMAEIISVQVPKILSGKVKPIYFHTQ
- Sequence (Q96SW2 whole entry partner): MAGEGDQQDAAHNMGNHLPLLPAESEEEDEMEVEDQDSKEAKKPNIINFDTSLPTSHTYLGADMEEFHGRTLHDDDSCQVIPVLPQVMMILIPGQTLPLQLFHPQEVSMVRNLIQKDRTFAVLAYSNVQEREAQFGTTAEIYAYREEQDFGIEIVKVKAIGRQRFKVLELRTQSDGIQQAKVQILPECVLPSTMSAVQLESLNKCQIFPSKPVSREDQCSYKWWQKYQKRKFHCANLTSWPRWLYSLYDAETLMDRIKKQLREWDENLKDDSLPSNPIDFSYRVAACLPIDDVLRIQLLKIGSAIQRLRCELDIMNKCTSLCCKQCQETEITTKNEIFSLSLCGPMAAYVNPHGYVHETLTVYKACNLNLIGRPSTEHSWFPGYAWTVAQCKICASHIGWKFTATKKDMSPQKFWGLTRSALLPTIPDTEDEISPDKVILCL
- TEST METHOD NOTES: Androgen receptor degradation assay using Western blot analysis
- Type: cell-based
- ASSAY CONDITIONS: 24 h, LNCaP.FGC cells, 100 nM, 24 hr, normalized to GAPDH, untreated cells = 100%; read-out: Androgen Receptor Remaining (%)
Please map values of remaining activity at 0.1 µM to classes as shown: c1: < 40%; c2: ≥ 40% and < 70%; c3: ≥ 70%

# bin label for Cn1c2c(c3ccc(OCCCN4CCN(c5ccc(C(=O)N[C@H]6C(C)(C)[C@H](Oc7ccc(C#N)c(Cl)c7)C6(C)C)cc5)CC4)cc31)C(=O)N(C1CCC(=O)NC1=O)C2=O (some centres unmarked) [Compound 12]
c2

# bin label for Cn1c2c(c3ccc(OCC4CCN(c5ccc(C(=O)N[C@H]6CC[C@H](Oc7ccc(C#N)c(Cl)c7)CC6)cn5)CC4)cc31)C(=O)N(C1CCC(=O)N(CO)C1=O)C2=O (some centres unmarked) [Compound 34]
c3

# bin label for Cn1c2c(c3cccc(OCCCN4CCN(c5ccc(C(=O)N[C@H]6C(C)(C)[C@H](Oc7ccc(C#N)c(Cl)c7)C6(C)C)cn5)CC4)c31)C(=O)N(C1CCC(=O)NC1=O)C2=O (some centres unmarked) [Compound 24]
c2

# bin label for Cn1c2c(c3ccc(NC(=O)CN4CCN(c5ccc(C(=O)N[C@H]6C(C)(C)[C@H](Oc7ccc(C#N)c(Cl)c7)C6(C)C)nn5)CC4)cc31)C(=O)N(C1CCC(=O)NC1=O)C2=O (some centres unmarked) [Compound 50]
c2

# bin label for Cn1c2c(c3ccc(OCCCN4CCN(c5ccc(C(=O)N[C@H]6C(C)(C)[C@H](Oc7ccc(C#N)c(Cl)c7)C6(C)C)cn5)CC4)cc31)C(=O)N(C1CCC(=O)NC1=O)C2=O (some centres unmarked) [Compound 8]
c1

# bin label for Cn1c2c(c3ccc(OCCN4CCC5(CC4)CN(c4ccc(C(=O)N[C@H]6CC[C@H](Oc7ccc(C#N)c(Cl)c7)CC6)nn4)C5)cc31)C(=O)N(C1CCC(=O)NC1=O)C2=O (some centres unmarked) [Compound 88]
c1

# bin label for Cn1c2c(c3ccc(NC(=O)CN4CCN(c5ccc(C(=O)N[C@H]6CC[C@H](Oc7ccc(C#N)c(Cl)c7)CC6)nn5)CC4)cc31)C(=O)N(C1CCC(=O)NC1=O)C2=O (some centres unmarked) [Compound 41]
c3

# bin label for Cn1c2c(c3ccc(OCCN4CCN(c5ccc(C(=O)N[C@H]6C(C)(C)[C@H](Oc7ccc(C#N)c(Cl)c7)C6(C)C)nc5)CC4)cc31)C(=O)N(C1CCC(=O)NC1=O)C2=O (some centres unmarked) [Compound 9]
c3

# bin label for Cn1c2c(c3cccc(OCCCN4CCN(c5ccc(C(=O)N[C@H]6C(C)(C)[C@H](Oc7ccc(C#N)c(Cl)c7)C6(C)C)cc5)CC4)c31)C(=O)N(C1CCC(=O)NC1=O)C2=O (some centres unmarked) [Compound 25]
c3

# bin label for Cn1c2c(c3ccc(OCCCN4CCN(c5ccc(C(=O)N[C@H]6C(C)(C)[C@H](Oc7ccc(C#N)c(Cl)c7)C6(C)C)nc5)CC4)cc31)C(=O)N(C1CCC(=O)NC1=O)C2=O (some centres unmarked) [Compound 11]
c3

# bin label for Cn1c2c(c3ccc(OCCCN4CCN(c5ccc(C(=O)N[C@H]6C(C)(C)[C@H](Oc7ccc(C#N)c(Cl)c7)C6(C)C)nn5)CC4)cc31)C(=O)N(C1CCC(=O)NC1=O)C2=O (some centres unmarked) [Compound 40]
c1

# bin label for Cn1c2c(c3ccc(OCCN4CCN(c5ccc(C(=O)N[C@H]6C(C)(C)[C@H](Oc7ccc(C#N)c(Cl)c7)C6(C)C)cc5)CC4)cc31)C(=O)N(C1CCC(=O)NC1=O)C2=O (some centres unmarked) [Compound 1]
c2

# bin label for Cn1c2c(c3ccc(OCCOC4CCN(c5ccc(C(=O)N[C@H]6CC[C@H](Oc7ccc(C#N)c(Cl)c7)CC6)nn5)CC4)cc31)C(=O)N(C1CCC(=O)NC1=O)C2=O (some centres unmarked) [Compound 168]
c1

###

- TARGET OR SYSTEM: androgen receptor (Homo sapiens, UniProt P10275, T878A)
- Construct: host or cells: LNCaP.FGC
- TEST METHOD NOTES: Androgen receptor degradation assay using Western blot analysis
- Format: cell-based
- ASSAY CONDITIONS: 24 h, read-out: Androgen Receptor Remaining (%), LNCaP.FGC cells, 100 nM, 24 hr, normalized to GAPDH, untreated cells = 100%
Could you please report measured remaining activity at 0.1 µM for the items listed next?
Give the value in % but do not write % after it.

I'm curious: which remaining activity at 0.1 µM was measured for CCn1c2c(c3ccc(OCC(=O)NCC4CCN(c5ccc(C(=O)N[C@H]6CC[C@H](N(C)c7ccc(C#N)c(Cl)c7)CC6)nn5)CC4)cc31)C(=O)N(C1CCC(=O)C(CO)C1=O)C2=O (stereo partly drawn) tested on androgen receptor (Homo sapiens, UniProt P10275, T878A)?
49

I'm curious: which remaining activity at 0.1 µM was measured for CCn1c2c(c3ccc(OCCN4CC5CCC(C4)N5c4ccc(C(=O)N[C@H]5CC[C@H](Oc6ccc(C#N)c(Cl)c6)CC5)nn4)cc31)C(=O)N(C1CCC(=O)NC1=O)C2=O (stereo partly drawn) tested on androgen receptor (Homo sapiens, UniProt P10275, T878A)?
62

I'm curious: which remaining activity at 0.1 µM was measured for CCn1c2c(c3ccc(OCCN4CCN(c5ccc(C(=O)N[C@H]6CC[C@H](Oc7ccc(C#N)c(Cl)c7)CC6)nn5)[C@H](C)C4)cc31)C(=O)N(C1CCC(=O)NC1=O)C2=O (stereo partly drawn) tested on androgen receptor (Homo sapiens, UniProt P10275, T878A)?
39

I'm curious: which remaining activity at 0.1 µM was measured for CCn1c2c(c3ccc(OCC(=O)N4CCN(c5ccc(C(=O)N[C@H]6CC[C@H](Oc7ccc(C#N)c(Cl)c7)CC6)nn5)CC4)cc31)C(=O)N(C1CCC(=O)NC1=O)C2=O (stereo partly drawn) tested on androgen receptor (Homo sapiens, UniProt P10275, T878A)?
48

I'm curious: which remaining activity at 0.1 µM was measured for CCn1c2c(c3ccc(OCCN4C[C@H](C)N(c5ccc(C(=O)N[C@H]6CC[C@H](Oc7ccc(C#N)c(Cl)c7)CC6)nn5)C[C@H]4C)cc31)C(=O)N(C1CCC(=O)NC1=O)C2=O (stereo partly drawn) tested on androgen receptor (Homo sapiens, UniProt P10275, T878A)?
40

I'm curious: which remaining activity at 0.1 µM was measured for CCn1c2c(c3cc(OCCN4CCN(c5ccc(C(=O)N[C@H]6C(C)(C)[C@H](Oc7ccc(C#N)c(Cl)c7)C6(C)C)cn5)CC4)ccc31)C(=O)N(C1CCC(=O)NC1=O)C2=O (stereo partly drawn) tested on androgen receptor (Homo sapiens, UniProt P10275, T878A)?
51

###

- TARGET OR SYSTEM: androgen receptor (Homo sapiens, UniProt P10275, T878A)
- Construct: host or cells: LNCaP.FGC
- TEST METHOD NOTES: Androgen receptor degradation assay using Western blot analysis
- Type: cell-based
- ASSAY CONDITIONS: read-out: AR DC50 (concentration needed for 50% AR degradation); LNCaP.FGC cells, serial 10x dilutions from 100 nM
RESULT TYPE: DC50

I'm curious: which DC50 was measured for CCn1c2c(c3ccc(OCCOC4CCN(c5ccc(C(=O)N[C@H]6CC[C@H](N(C)c7ccc(C#N)c(Cl)c7)CC6)nn5)CC4)cc31)C(=O)N(C1CCC(=O)NC1=O)C2=O (stereo partly drawn) tested on androgen receptor (Homo sapiens, UniProt P10275, T878A)?
10 to 25 nM

I'm curious: which DC50 was measured for CCn1c2c(c3ccc(OC4CCN(CC5CCN(c6ccc(C(=O)N[C@H]7C(C)(C)[C@H](Oc8ccc(C#N)c(Cl)c8)C7(C)C)nn6)CC5)CC4)cc31)C(=O)N(C1CCC(=O)NC1=O)C2=O (stereo partly drawn) tested on androgen receptor (Homo sapiens, UniProt P10275, T878A)?
25 to 100 nM

I'm curious: which DC50 was measured for N#Cc1ccc(O[C@H]2CC[C@H](NC(=O)c3ccc(N4CCN(CCCOc5ccc6c7c(n(CC(F)F)c6c5)C(=O)N(C5CCC(=O)NC5=O)C7=O)CC4)nn3)CC2)cc1Cl (stereo partly drawn) tested on androgen receptor (Homo sapiens, UniProt P10275, T878A)?
25 to 100 nM

I'm curious: which DC50 was measured for CCn1c2c(c3ccc(OCCCN4CCN(c5ccc(C(=O)N[C@H]6CC[C@H](N(C)c7ccc(C#N)c(Cl)c7)CC6)nn5)CC4)cc31)C(=O)N(C1CCC(=O)NC1=O)C2=O (stereo partly drawn) tested on androgen receptor (Homo sapiens, UniProt P10275, T878A)?
10 to 25 nM

I'm curious: which DC50 was measured for CN(c1ccc(C#N)c(Cl)c1)[C@H]1CC[C@H](NC(=O)c2ccc(N3CCN(CCCOc4ccc5c6c(n(CC(F)F)c5c4)C(=O)N(C4CCC(=O)NC4=O)C6=O)CC3)nn2)CC1 (stereo partly drawn) tested on androgen receptor (Homo sapiens, UniProt P10275, T878A)?
10 to 25 nM

I'm curious: which DC50 was measured for CCn1c2c(c3ccc(OCCN4CCC5(CC4)CN(c4ccc(C(=O)N[C@H]6C(C)(C)[C@H](Oc7ccc(C#N)c(Cl)c7)C6(C)C)nn4)C5)cc31)C(=O)N(C1CCC(=O)NC1=O)C2=O (stereo partly drawn) tested on androgen receptor (Homo sapiens, UniProt P10275, T878A)?
25 to 100 nM

I'm curious: which DC50 was measured for CCn1c2c(c3ccc(OCCCN4CCC(c5ncc(C(=O)N[C@H]6CC[C@H](Oc7ccc(C#N)c(Cl)c7)CC6)cn5)CC4)cc31)C(=O)N(C1CCC(=O)NC1=O)C2=O (stereo partly drawn) tested on androgen receptor (Homo sapiens, UniProt P10275, T878A)?
25 to 100 nM

I'm curious: which DC50 was measured for CCn1c2c(c3ccc(OCCCN4CCN(c5ccc(C(=O)N[C@H]6CC[C@H](Oc7ccc(C#N)c(Cl)c7)CC6)nn5)[C@H](C)C4)cc31)C(=O)N(C1CCC(=O)NC1=O)C2=O (stereo partly drawn) tested on androgen receptor (Homo sapiens, UniProt P10275, T878A)?
25 to 100 nM

I'm curious: which DC50 was measured for C=Nc1ccc(O[C@H]2CC[C@H](NC(=O)c3ccc(N4CC5(CCN(CCCOc6ccc7c8c(n(CC(F)F)c7c6)C(=O)N(C6CCC(=O)NC6=O)C8=O)CC5)C4)nn3)CC2)cc1Cl (stereo partly drawn) tested on androgen receptor (Homo sapiens, UniProt P10275, T878A)?
25 to 100 nM

I'm curious: which DC50 was measured for CCn1c2c(c3ccc(OCCN4CC=C(c5ccc(C(=O)N[C@H]6CC[C@H](Oc7ccc(C#N)c(Cl)c7)CC6)nn5)CC4)cc31)C(=O)N(C1CCC(=O)NC1=O)C2=O (stereo partly drawn) tested on androgen receptor (Homo sapiens, UniProt P10275, T878A)?
< 10 nM

I'm curious: which DC50 was measured for CN(c1ccc(C#N)c(Cl)c1)[C@H]1CC[C@H](NC(=O)c2ccc(N3CCN(CCOc4ccc5c6c(n(CC(F)F)c5c4)C(=O)N(C4CCC(=O)NC4=O)C6=O)CC3)nn2)CC1 (stereo partly drawn) tested on androgen receptor (Homo sapiens, UniProt P10275, T878A)?
25 to 100 nM

I'm curious: which DC50 was measured for CCn1c2c(c3ccc(OCCCN4CCC5(CC4)CN(c4ccc(C(=O)N[C@H]6C(C)(C)[C@H](Oc7ccc(C#N)c(Cl)c7)C6(C)C)nn4)C5)cc31)C(=O)N(C1CCC(=O)NC1=O)C2=O (stereo partly drawn) tested on androgen receptor (Homo sapiens, UniProt P10275, T878A)?
25 to 100 nM
